- measurement_target: human GPVI-Fc (isoform and haplotype not stated) used in the competition ELISA (human) (UniProt Q9HCN6)
- method: Competition ELISA (MSD): human GPVI-Fc preincubated with Fab, then on coated VitroCol (competitor)
Overview of reported Maximum inhibition at 200 nM Fab [%] across a group of binders:
Report only the number, with the unit % understood.

Consider the following illustrative entries.
• Fab #3 comprising a modified heavy chain constant region (Fab, V domains shown) VH: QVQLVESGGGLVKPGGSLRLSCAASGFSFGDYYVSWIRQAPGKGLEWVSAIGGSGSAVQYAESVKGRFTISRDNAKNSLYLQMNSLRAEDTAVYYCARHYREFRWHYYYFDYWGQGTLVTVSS VL: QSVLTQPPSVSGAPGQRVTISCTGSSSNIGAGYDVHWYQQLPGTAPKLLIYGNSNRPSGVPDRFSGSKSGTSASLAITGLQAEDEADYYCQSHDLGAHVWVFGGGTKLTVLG = 99
• Fab #4 comprising a modified heavy chain constant region (Fab, V domains shown) VH: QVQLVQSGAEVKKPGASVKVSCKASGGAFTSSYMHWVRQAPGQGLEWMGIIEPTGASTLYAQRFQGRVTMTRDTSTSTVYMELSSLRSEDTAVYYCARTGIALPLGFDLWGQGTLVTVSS VL: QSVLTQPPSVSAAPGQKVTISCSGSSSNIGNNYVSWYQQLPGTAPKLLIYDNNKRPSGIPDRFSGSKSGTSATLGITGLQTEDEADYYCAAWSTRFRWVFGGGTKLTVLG = 82

# ---- query binder ----
Prompt line: Record request: Maximum inhibition at 200 nM Fab [%] value, item Fab #2 comprising a modified heavy chain constant region (Fab, V domains shown) VH: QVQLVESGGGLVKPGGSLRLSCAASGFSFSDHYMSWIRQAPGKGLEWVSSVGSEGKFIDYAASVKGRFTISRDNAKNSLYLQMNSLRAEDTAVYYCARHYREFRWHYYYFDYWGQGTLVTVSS VL: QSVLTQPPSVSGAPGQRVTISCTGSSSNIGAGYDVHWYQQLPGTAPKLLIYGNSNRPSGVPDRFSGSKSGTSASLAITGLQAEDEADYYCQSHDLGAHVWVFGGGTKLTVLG
Response line: 100
